- Run parameters: 338.15 K; 101.33 kPa; Liquid; Concentric cylinders viscometry
Measurement name: viscosity (mPa·s)

In the examples that follow, each entry is paired with its recorded viscosity.
1. OCCOCCO [diethylene glycol] = 6.561
2. CCOCCOCCOCC [diethylene glycol diethyl ether] = 0.699

(I) CCOCCO [2-ethoxyethan-1-ol]
(II) COCCOCCOCCOCCOC [2,5,8,11,14-pentaoxapentadecane]
(III) COCCOCCOC [2,5,8-trioxanonane]
Ask: Please produce an ascending ranking of these compounds based on viscosity. Put the labels in the requested order and list them out.
Result: III, I, II

(A) COCCOCCOCCOC [2,5,8,11-tetraoxadodecane]
(B) OCCOCCOCCO [triethylene glycol]
Ask: Compare A and B and name the one whose reported viscosity is smaller. Write down the label attached to your selection.
Result: A
(A: 1.026 mPa·s, B: 8.221 mPa·s)

(1) OCCO [1,2-ethanediol]
(2) CCOCCOCCO [3,6-dioxa-1-octanol]
Ask: Sorting ascending by viscosity, which comes first: 1 or 2 ? Give the label under which the chosen entry appears.
Result: 2

* * *

- Run parameters: 313.15 K; 101.33 kPa; Liquid; Concentric cylinders viscometry
Measurement name: viscosity (mPa·s)

1) COCCOCCO = 2.373

(A) OCCOCCOCCO
(B) CCOCCOCCO
(C) COCCOCCOC
Ask: Ascending sort, viscosity. List labels; respect the requested ordering.
Result: C, B, A

* * *

- Run parameters: 288.15 K; 101.33 kPa; Liquid; Sing-around technique in a fixed-path interferometer
Measurement name: speed of sound (m/s)

1. COCCOCCO [2-(2-methoxyethoxy)ethanol] = 1450.2
2. CCOCCO [2-ethoxyethan-1-ol] = 1342
3. COCCOCCOCCOCCOC [2,5,8,11,14-pentaoxapentadecane] = 1420.3
4. COCCOCCOC [2,5,8-trioxanonane] = 1320
5. OCCOCCOCCO [triethylene glycol] = 1642.8
6. COCCOCCOCCOC [2,5,8,11-tetraoxadodecane] = 1381.4

* * *

- Run parameters: 348.15 K; 101.33 kPa; Liquid; Concentric cylinders viscometry
Measurement name: viscosity (mPa·s)

As a guide, the following entries are already answered.
1) COCCOCCOC [2,5,8-trioxanonane] = 0.537
2) CCOCCOCCO [3,6-dioxa-1-octanol] = 1.343

(P) OCCOCCOCCO [triethylene glycol]
(Q) OCCO [1,2-ethanediol]
Ask: Select one. Lower viscosity: P or Q Refer to your chosen item by its label in the answer.
Result: Q

* * *

- Run parameters: 353.15 K; 101.33 kPa; Liquid; Vibrating tube method
Measurement name: mass density (kg/m3)

1) OCCOCCO = 1074.1
2) CCOCCOCCO = 935.3
3) COCCOCCO = 967.2
4) OCCO = 1071.5
5) COCCOCCOCCOCCOC = 957.3
6) COCCOCCOCCOC = 929
7) OCCOCCOCCO = 1077.8

* * *

- Assay details: refractive index (Na D-line) (dimensionless)
- Run parameters: 313.15 K; 101.33 kPa; Liquid; Standard Abbe refractometry
Measurement name: refractive index

1) OCCOCCOCCO = 1.44955
2) COCCOCCO = 1.41733
3) OCCOCCO = 1.44068
4) COCCOCCOCCOC = 1.41434
5) COCCOCCOC = 1.39921
